target: RNA-directed RNA polymerase (Hepacivirus hominis, UniProt Q8JXU8)
Sequence (Q8JXU8 whole entry): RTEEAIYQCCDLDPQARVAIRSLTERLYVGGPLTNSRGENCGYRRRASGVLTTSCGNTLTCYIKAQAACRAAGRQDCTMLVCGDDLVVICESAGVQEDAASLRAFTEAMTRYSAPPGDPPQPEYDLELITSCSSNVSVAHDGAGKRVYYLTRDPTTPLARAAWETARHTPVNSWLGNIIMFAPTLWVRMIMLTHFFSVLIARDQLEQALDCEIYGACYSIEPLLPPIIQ
assayMetric: pIC50
On this scale, pIC50 is minus log10 of a concentration expressed in M (mol/L).

Note to self: pIC50 of "O=C(O)C(=O)CC(=O)c1ccccc1" with RNA-directed RNA polymerase (Hepacivirus hominis, UniProt Q8JXU8) was 5.24

Values were extracted from BindingDB's records for doi:10.1021/jm0494669.
